Data provenance: patent US10221177B2

# Target of assay: UniProtKB O75762
# Sequence (O75762 whole entry): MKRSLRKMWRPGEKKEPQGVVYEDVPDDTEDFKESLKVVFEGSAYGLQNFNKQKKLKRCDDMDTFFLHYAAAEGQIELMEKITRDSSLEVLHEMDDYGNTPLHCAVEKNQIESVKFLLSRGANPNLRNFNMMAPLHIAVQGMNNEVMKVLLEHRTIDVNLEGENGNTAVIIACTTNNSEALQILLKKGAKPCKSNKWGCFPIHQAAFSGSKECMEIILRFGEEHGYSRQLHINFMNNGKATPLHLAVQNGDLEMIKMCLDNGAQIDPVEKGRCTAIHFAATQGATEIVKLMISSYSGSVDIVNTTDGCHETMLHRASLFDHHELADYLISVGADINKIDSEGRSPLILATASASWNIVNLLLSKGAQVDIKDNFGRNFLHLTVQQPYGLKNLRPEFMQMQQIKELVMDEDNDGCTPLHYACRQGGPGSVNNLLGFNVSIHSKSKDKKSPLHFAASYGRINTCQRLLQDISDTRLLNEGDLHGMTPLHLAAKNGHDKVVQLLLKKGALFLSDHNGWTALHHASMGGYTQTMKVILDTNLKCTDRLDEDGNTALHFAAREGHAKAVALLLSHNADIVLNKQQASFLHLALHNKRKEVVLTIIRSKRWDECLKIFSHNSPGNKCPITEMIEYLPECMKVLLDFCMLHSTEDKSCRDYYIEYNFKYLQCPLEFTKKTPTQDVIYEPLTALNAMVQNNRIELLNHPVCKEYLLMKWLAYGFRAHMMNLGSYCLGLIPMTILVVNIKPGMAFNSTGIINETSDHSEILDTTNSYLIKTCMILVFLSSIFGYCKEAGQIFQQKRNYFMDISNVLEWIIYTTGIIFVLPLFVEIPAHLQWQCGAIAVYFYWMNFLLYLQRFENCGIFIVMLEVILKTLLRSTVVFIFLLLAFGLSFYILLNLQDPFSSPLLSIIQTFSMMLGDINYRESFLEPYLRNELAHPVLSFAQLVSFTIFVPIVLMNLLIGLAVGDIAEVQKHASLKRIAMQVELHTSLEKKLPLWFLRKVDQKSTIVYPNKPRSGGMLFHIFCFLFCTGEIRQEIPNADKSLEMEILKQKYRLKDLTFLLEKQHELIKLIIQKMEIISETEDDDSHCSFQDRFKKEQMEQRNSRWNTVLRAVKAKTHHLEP
# Method notes: In vitro inhibition of human TRPA1, whole cell patch configuration
# Condition summary: current activation 10 μM AITC, tested concentrations 320 pM to 3.2 μM, read-out: hTRPA1 IC50
pIC50: −log10 of the molar value.
Note to self: values exactly at 8 are class 1. So pIC50 at or above 8 is class 1, below is class 0.

{"Molecule": "CCC(=O)Cn1c(=O)c2c(ncn2[C@@H](C)C(=O)Nc2cccc(-c3ccc(N4CC5CC5C4)nc3)n2)n(C)c1=O (stereo partly shown) [Compound 37]", "Label": "class 1"}
{"Molecule": "CC(=O)Cn1c(=O)c2c(ncn2[C@@H](C)C(=O)Nc2cccc(-c3cnc(C(F)(F)F)nc3)n2)n(C)c1=O [Compound 4]", "Label": "class 0"}
{"Molecule": "Cc1nc2c(c(=O)n(Cc3ccccn3)c(=O)n2C)n1CC(=O)Nc1cccc(-c2ccc(F)c(F)c2)n1 [Compound 175]", "Label": "class 0"}
{"Molecule": "CCC(=O)Cn1c(=O)c2c(ncn2[C@@H](C)C(=O)Nc2csc(-c3ccc(N4CC5CC5C4)nc3)n2)n(C)c1=O (stereo partly shown) [Compound 33]", "Label": "class 1"}
{"Molecule": "CCN(CC)c1ncc(-c2cccc(NC(=O)[C@H](C)n3cnc4c3c(=O)n(Cc3cc(C)on3)c(=O)n4C)n2)cn1 [Compound 27]", "Label": "class 1"}
{"Molecule": "CCC(=O)Cn1c(=O)c2c(ncn2[C@@H](C)C(=O)Nc2cccc(-c3cnc(N4CC5CC5C4)cn3)n2)n(C)c1=O (stereo partly shown) [Compound 113]", "Label": "class 1"}

stdin: Dear colleague, could you confirm whether Cc1nc(Cn2c(=O)c3c(ncn3CC(=O)Nc3cccc(-c4cnc(C(F)(F)F)c(C)c4)n3)n(C)c2=O)no1 [Compound 223] has pIC50 at or above 8?
stdout: class 0

stdin: Reported pIC50 reaches at least 8 for Cc1ncc(-c2cccc(NC(=O)[C@H](C)n3cnc4c3c(=O)n(Cc3ccon3)c(=O)n4C)n2)cc1C(F)(F)F [Compound 136] ?
stdout: class 1

stdin: Hi, just wondering whether CCC(=O)Cn1c(=O)c2c(ncn2[C@@H](C)C(=O)Nc2ccnc(-c3ccc(N4CC5C(C4)C5(F)F)nc3)n2)n(C)c1=O (stereo partly shown) [Compound 70] shows pIC50 of 8 or higher.
stdout: class 1

stdin: Hello, I need to know if CC(=O)Cn1c(=O)c2c(ncn2[C@@H](C)C(=O)Nc2cncc(-c3cnc(C)c(Cl)c3)n2)n(C)c1=O [Compound 140] has measured pIC50 not below 8. Thanks!
stdout: class 0
